Reference source: paper doi:10.1101/2023.10.14.562361v1

biological target: Smurf1 FL (Homo sapiens, UniProt Q9HCE7)
Sequence (Q9HCE7 whole entry): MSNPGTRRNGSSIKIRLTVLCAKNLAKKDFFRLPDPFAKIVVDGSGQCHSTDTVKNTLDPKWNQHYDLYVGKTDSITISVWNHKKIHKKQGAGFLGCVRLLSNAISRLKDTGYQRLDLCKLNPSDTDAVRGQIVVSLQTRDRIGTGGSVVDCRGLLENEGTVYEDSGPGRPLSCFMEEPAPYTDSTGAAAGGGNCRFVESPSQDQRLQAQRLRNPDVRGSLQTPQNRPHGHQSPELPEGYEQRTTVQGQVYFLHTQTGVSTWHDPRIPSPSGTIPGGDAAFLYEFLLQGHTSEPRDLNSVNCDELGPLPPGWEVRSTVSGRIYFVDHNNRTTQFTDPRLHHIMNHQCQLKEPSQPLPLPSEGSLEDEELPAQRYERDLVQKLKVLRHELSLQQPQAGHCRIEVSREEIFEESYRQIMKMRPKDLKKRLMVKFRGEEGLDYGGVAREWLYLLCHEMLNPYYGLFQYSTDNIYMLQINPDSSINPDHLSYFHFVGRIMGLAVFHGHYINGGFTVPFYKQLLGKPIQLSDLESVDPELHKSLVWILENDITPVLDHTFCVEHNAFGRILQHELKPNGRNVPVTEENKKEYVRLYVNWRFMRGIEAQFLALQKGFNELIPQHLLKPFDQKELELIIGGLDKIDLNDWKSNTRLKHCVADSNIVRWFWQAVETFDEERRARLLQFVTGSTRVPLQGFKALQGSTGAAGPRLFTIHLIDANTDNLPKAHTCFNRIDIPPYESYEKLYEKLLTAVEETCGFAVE
pIC50: −log10 of the molar value.
RESULT_TYPE: pIC50

> print(dat)
                                   compound  result.type  experimental.value
1  Cc1c(NC(=O)c2noc3c2CCSc2cc(OC(F)(F)F)ccc2-3)c(=O)n(C2CCCCC2)n1C [compound 1]        pIC50                6.64

###

target: Smurf1 HECT (Homo sapiens)
Sequence (Q9HCE7 341-757): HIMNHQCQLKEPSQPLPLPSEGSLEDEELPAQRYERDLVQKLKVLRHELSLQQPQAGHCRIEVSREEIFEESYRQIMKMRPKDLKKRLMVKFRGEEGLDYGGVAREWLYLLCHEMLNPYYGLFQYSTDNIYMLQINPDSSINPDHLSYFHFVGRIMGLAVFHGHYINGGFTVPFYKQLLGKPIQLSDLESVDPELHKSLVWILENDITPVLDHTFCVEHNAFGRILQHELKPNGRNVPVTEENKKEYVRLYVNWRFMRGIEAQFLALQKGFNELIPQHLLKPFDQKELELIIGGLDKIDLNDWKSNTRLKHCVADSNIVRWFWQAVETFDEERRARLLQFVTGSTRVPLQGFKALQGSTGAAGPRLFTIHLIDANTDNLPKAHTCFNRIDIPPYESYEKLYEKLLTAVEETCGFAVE
RESULT_TYPE: IC50 (nM)

> print(dat)
                                   compound  result.unit  experimental.value
1  Cc1c(NC(=O)c2noc3c2CCSc2cc(OC(F)(F)F)ccc2-3)c(=O)n(C2CCCCC2)n1C [compound 1]           nM                 450
